# ASSAY TARGET: T1, human FLT3 (human, UniProt P36888 27-993)
# T1 construct: On transfected CHO cells, or on the FLT3 positive human AML cell lines EOL-1 / MV4-11 where the row says so; also called hu FLT3; full length human FLT3
# EXPERIMENTAL PROTOCOL: FACS, scFv on CHO-human FLT3 pre-incubated with FLT3 ligand (competitor)
READOUT NAME: median [+ligand]/median [w/o ligand]*100

The reported value for FL-11 scFv (scFv, periplasmic prep) scFv: QVTLKESGPVLVKPTETLTLTCTLSGFSLNNAKMGVSWIRQPPGKALEWLAQIFSNGEKSYSTSLKSRLTISKDTSKGQVVLTMTNMDPVDTATYYCSRIVGYGSGWYGYFDYWGQGTLVTVSSGGGGSGGGGSGGGGSDIQMTQSPSSLSASVGDRVTITCRASQGIRNDLGWYQQKPGKAPKRLIYGASTLQSGVPSRFSGSGSGTEFTLTISSLQPEDFATYYCLQHNSYPLTFGGGTKVEIK in terms of median [+ligand]/median [w/o ligand]*100 is ≥ 75%

The reported value for FL-31 scFv (scFv, periplasmic prep) scFv: QVTLKESGPALVKPTQTLTLTCTFSGFSLSNARMGVSWIRQPPGKALEWLAHIFSNDEKSYSTSLKSRLTISKDTSKSQVVLTMTDMDPEDTATYYCARIVGYGTGWYGFFDYWGQGILVTVSSGGGGSGGGGSGGGGSDIQMTQSPSSLSASVGDRVTITCRTSQGIRNDLGWYQQKPGKAPKRLIYAASSLQSGVPSRFSGSGSGTEFTLTISSLQPEDFATYYCLQHNSYPLTFGGGTKVEIK in terms of median [+ligand]/median [w/o ligand]*100 is ≥ 75%

The reported value for FL-63 scFv (scFv, periplasmic prep) scFv: QVQLVESGGGVVQPGRSLRLSCAASGFTFSSYGMHWVRQAPGKGLEWVAVISYDGSNEFYADSVKGRFTISRDNSKNTLYLQMNSLRAEDTAVYYCARGGEITMVRGVIGYYYYGMDVWGQGTTVTVSSGGGGSGGGGSGGGGSDIQMTQSPSSLSASVGDRVTITCRTSQSISSYLNWYQQKPGKAPKLLIYAASSLQSGVPSRFSGSGSGTEFTLTISSLQPEDFATYYCLQHNSYPLTFGGGTKVDIK in terms of median [+ligand]/median [w/o ligand]*100 is ≥ 75%
